Quick list: Kd per entry.
# study_target: cynomolgus monkey ABCC1 (UniProt Q864R9 1-1531)
# Sequence (Q864R9 whole entry): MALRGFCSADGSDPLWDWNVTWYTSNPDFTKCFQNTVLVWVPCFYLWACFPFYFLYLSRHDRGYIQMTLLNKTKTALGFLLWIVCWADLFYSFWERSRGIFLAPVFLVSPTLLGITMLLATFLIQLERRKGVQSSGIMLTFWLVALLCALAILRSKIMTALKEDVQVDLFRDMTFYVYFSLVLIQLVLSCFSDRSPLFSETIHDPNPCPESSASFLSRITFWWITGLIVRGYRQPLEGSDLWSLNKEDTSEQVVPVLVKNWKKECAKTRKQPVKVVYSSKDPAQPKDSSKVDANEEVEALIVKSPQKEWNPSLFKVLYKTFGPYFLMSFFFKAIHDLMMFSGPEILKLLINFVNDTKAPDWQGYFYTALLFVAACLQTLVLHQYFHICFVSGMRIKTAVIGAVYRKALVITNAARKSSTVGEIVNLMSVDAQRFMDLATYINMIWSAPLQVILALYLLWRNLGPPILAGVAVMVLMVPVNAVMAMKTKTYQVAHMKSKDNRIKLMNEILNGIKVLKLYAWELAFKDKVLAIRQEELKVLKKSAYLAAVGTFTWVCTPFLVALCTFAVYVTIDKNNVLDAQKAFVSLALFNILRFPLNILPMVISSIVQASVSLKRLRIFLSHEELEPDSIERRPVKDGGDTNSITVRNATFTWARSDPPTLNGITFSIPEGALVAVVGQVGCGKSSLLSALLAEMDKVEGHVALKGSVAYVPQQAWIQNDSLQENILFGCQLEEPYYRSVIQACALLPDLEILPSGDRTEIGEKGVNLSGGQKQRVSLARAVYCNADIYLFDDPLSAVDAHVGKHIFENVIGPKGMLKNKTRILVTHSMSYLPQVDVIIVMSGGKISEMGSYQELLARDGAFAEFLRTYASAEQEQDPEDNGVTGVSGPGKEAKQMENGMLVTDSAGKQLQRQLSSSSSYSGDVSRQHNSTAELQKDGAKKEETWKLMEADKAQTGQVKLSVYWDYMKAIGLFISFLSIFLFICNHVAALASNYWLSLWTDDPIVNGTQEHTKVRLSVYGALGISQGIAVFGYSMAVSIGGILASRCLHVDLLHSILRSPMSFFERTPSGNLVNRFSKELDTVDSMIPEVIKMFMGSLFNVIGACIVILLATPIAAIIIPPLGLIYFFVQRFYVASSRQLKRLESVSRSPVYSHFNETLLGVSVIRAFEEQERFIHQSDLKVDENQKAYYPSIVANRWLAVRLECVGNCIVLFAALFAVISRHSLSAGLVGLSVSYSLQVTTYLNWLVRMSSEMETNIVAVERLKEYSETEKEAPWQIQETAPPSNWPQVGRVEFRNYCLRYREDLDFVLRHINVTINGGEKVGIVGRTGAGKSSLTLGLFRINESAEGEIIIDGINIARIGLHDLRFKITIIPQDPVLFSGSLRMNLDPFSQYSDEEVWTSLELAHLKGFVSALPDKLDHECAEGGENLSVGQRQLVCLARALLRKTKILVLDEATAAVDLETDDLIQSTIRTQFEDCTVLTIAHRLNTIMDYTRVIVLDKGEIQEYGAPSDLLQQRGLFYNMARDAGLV
# experimental_protocol: FACS titration on C6 cells; C6 cells
# unit: nM | format: bare number

In the examples that follow, each entry is paired with its recorded Kd.
binder	value_unit	Kd
C1.877 (antibody, V domains shown) VH: EVQLTESGPGLVQPSQTLSLTCTVSGFSLTSNGVSWVRQPPGKGLEWIAAISSGGSTYYNSAFKSRLSISRHTSKSQVLLNMNSLQTEDTAMYFCARHRGYYWSNWGYFDYWGQGVMVTVSS VL: DIVMTQSPSLLSASVGDRVTLSCKGSQNINNYLAWYQQKLGEAPKLLIYETNSLQTGIPSRFSGSGSGTDYTLTLSSLHSEDLATYYCYQYNDGYTFGAGTKLEIK	nM	66.8
C1.861 (antibody, V domains shown) VH: EVQLKESGPGLVQPSQTLSLTCTVSGFSLTSNGVTWVRQPPGKGLEWIAAISSGGNIYYNSAVKSRLSISRDTSKSQVFLKMNSLQTEDTAIYFCTRARGTTTAYVMDAWGQGASVTVSS VL: DVVLTQSPSSLAVSAGETVTINCKSSQSLLYSGNQKNYLAWYQQKPGQSPKLLIYWASTRQSGVPDRFIGSGSGTDFTLTISSVQAEDLAIYYCQQYYDVLMNMFGAGTKLEIK	nM	60.1

Could you now look at the following binder, please?
QUERY: Entry C1.879A (antibody, V domains shown) VH: EVQLTESGPGLVQPSQTLSLTCTVSGFSLTSNGVSWVRQPPGKGLEWIAAISSGGSTYYNSAFKSRLSISRHTSKSQVLLNMNSLQTEDTAMYFCARHRGYYWSNWGYFDYWGQGVMVTVSS VL: DIQLTQSPSLLSASVGDRVTLSCKGSQNINNYLAWYQQKVGEAPKLLIYKTNSLQTGIPSRFSGSGSGTDYTLTISSLHSEDLATYYCYQYNNGYTFGAGTKLELKR has what Kd?
RESULT: 27.2
